Sourced from ChEMBL document CHEMBL3991601

# system.tested: Protein kinase C delta type (Homo sapiens); note: in the data inactive means no Kd found up to 30 µM
# Sequence (Q05655 whole entry): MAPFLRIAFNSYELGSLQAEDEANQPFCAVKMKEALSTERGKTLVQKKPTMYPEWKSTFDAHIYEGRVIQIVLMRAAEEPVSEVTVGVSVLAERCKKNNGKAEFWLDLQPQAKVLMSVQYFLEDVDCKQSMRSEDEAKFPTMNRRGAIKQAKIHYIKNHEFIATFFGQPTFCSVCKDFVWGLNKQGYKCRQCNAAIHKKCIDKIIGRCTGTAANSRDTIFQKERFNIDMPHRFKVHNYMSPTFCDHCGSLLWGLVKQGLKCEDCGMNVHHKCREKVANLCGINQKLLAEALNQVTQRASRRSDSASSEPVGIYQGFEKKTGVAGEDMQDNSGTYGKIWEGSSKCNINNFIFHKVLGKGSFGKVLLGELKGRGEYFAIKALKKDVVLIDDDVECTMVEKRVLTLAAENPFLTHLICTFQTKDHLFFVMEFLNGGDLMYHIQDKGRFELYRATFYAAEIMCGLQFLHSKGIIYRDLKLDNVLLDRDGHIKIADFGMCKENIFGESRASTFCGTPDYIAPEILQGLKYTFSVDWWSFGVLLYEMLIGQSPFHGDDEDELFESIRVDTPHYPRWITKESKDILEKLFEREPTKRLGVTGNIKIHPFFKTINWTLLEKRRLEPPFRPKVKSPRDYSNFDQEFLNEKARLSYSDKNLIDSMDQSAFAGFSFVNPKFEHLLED
Active and inactive are the calls of the source.
Response enum: YES (active), NO (inactive)

Please indicate how the test categorized COc1cc2nccc(Oc3ccc(NC(=O)Nc4cc(C)on4)c(Cl)c3)c2cc1OC .
NO

Would you mind doing CNC(=O)c1ccc(C)c(-n2c(C)cc(OCc3ccc(F)cc3F)c(Br)c2=O)c1 as well?
NO

Again, but for Cn1cc(-c2ccc(F)c(C(F)(F)F)c2)nc1C1CCN(c2ncnc3[nH]ncc23)CC1
NO

# iterate: Cc1cc2c(F)c(Oc3ncnn4cc(OC[C@@H](C)OC(=O)[C@H](C)N)c(C)c34)ccc2[nH]1 [BRIVANIB ALANINATE]
NO

Subsequent entry: COc1cc(N2CCC(N3CCN(C)CC3)CC2)ccc1Nc1ncnc(Nc2ccccc2S(=O)(=O)C(C)C)n1
NO

Now try CC[C@@H]1C(=O)N(C)c2cnc(Nc3ccc(C(=O)N[C@H]4CC[C@H](N5CCN(CC6CC6)CC5)CC4)cc3OC)nc2N1C(C)C .
NO

Similarly, CN1CC[C@@H](c2c(O)cc(O)c3c(=O)cc(-c4ccccc4Cl)oc23)[C@@H]1CO ?
YES

Another compound to check: N[C@@H]1CCCN(c2c(/C=C3\SC(=O)NC3=O)cccc2-c2ccccc2)C1
NO

Could you do the same for Cc1cc(-c2cc(O)ccc2Cl)cc2nnc(Nc3ccc(OCCN4CCCC4)cc3)nc12 , please?
NO

Further, for COc1cc2nccc(Oc3ccc(NC(=O)NC4CC4)c(Cl)c3)c2cc1C(N)=O ?
NO

Check CNS(=O)(=O)Nc1nccc(Cc2c(C)c3ccc(Oc4ncccn4)cc3oc2=O)c1F too.
NO

Same thing, different compound: CC(=O)Nc1cccc(-n2c(=O)n(C3CC3)c(=O)c3c(Nc4ccc(I)cc4F)n(C)c(=O)c(C)c32)c1
NO

Try O=C1NC(=O)/C(=C/c2ccc3nccc(-c4ccncc4)c3c2)S1 next.
NO

Then what about the compound CCCS(=O)(=O)Nc1ccc(F)c(C(=O)c2c[nH]c3ncc(-c4ccc(Cl)cc4)cc23)c1F ?
NO

What about COc1ccc(-c2ccc3c(N4CCOC[C@@H]4C)nc(N4CCOC[C@@H]4C)nc3n2)cc1CO ?
NO

Thanks! And CNC(=O)CN1CCC(Oc2cc3c(Nc4cccc(Cl)c4F)ncnc3cc2OC)CC1 ?
NO

Follow-up item: Cc1ccc(S(=O)(=O)Nc2nc3ccccc3nc2Nc2ccc3nsnc3c2)cc1
NO

Also check COCCNCc1ccc(-c2cc3nccc(Oc4ccc(NC(=S)NC(=O)Cc5ccc(F)cc5)cc4F)c3s2)nc1
NO

* * *

# system.tested: LIM domain kinase 2 (Homo sapiens); note: in the data inactive means no Kd found up to 30 µM
# Sequence (P53671 whole entry, the tested form may be a part): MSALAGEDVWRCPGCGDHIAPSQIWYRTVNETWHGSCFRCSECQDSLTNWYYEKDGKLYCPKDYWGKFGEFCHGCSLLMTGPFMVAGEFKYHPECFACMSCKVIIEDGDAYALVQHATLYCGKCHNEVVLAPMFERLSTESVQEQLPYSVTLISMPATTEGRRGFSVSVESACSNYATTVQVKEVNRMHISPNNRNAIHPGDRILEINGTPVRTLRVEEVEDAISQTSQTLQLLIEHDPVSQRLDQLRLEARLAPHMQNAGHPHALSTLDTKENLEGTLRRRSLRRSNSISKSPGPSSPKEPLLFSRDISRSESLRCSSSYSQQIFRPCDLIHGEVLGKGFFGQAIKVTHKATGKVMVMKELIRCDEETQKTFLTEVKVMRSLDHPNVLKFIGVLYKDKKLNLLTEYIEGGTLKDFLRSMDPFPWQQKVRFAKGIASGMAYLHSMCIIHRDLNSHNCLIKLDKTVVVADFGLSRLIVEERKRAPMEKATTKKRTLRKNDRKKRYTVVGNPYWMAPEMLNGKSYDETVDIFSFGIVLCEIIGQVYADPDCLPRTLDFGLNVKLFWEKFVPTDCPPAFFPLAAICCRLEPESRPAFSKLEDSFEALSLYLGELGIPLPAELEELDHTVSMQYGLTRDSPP
Active and inactive are the calls of the source.
Entry note: the call must match one of YES (active), NO (inactive)

Entry COc1cc(OC)c(/C=C/S(=O)(=O)Cc2ccc(OC)c(NCC(=O)O)c2)c(OC)c1 [RIGOSERTIB] : call = ?
NO

Field entry: C[C@@H](Nc1cc(F)cc(F)c1)c1cc(C(=O)N(C)C)cc2c(=O)cc(N3CCOCC3)oc12 [AZD-8186]
NO

Same question for C=CC(=O)N1CCC(Oc2cc3c(Nc4ccc(Cl)c(Cl)c4F)ncnc3cc2OC)CC1 [POZIOTINIB] please.
NO

What do we get for Cc1cc2c(F)c(Oc3ncnn4cc(OC[C@@H](C)OC(=O)[C@H](C)N)c(C)c34)ccc2[nH]1 [BRIVANIB ALANINATE] ?
NO

Same lookup for CNC(=O)c1cc(Oc2ccc(NC(=O)Nc3ccc(Cl)c(C(F)(F)F)c3)c(F)c2)ccn1 [REGORAFENIB] , please.
NO

What do you get for Cn1ncc(Cl)c1-c1cc(C(=O)N[C@H](CN)Cc2cccc(F)c2)sc1Cl [AFURESERTIB] ?
NO

Now give it for C[C@@H]1CN(Cc2ccc(F)cc2)[C@@H](C)CN1C(=O)c1cc2c(C(=O)C(=O)N(C)C)cn(C)c2cc1Cl [TALMAPIMOD] too.
NO

Here is the next compound: CN1CCC(COc2cnc(-c3cccc(Cn4nc(-c5cccc(C#N)c5)ccc4=O)c3)nc2)CC1 [TEPOTINIB]
NO

Query Cc1ccc(S(=O)(=O)Nc2nc3ccccc3nc2Nc2ccc3nsnc3c2)cc1 next
NO

Same lookup for CN1CCC(CNc2ccc3ncc(-c4cccc(OC(F)(F)F)c4)n3n2)CC1 [SGI-1776] , please.
NO

And what about the compound CO[C@H]1C[C@@H]2CC[C@@H](C)[C@@](O)(O2)C(=O)C(=O)N2CCCC[C@H]2C(=O)O[C@H]([C@H](C)C[C@@H]2CC[C@@H](OCCO)[C@H](OC)C2)CC(=O)[C@H](C)/C=C(\C)[C@@H](O)[C@@H](OC)C(=O)[C@H](C)C[C@H](C)/C=C/C=C/C=C/1C [EVEROLIMUS] ?
NO

Same question, Cc1nc(N)sc1-c1ccnc(Nc2ccc(N3CCOCC3)cc2)n1 [CYC-116] this time
YES

Field entry: COc1cc2nccc(Oc3ccc(NC(=O)Nc4cc(C)on4)c(Cl)c3)c2cc1OC [TIVOZANIB]
NO

One more compound: COCCNCc1ccc(-c2cc3nccc(Oc4ccc(NC(=S)NC(=O)Cc5ccc(F)cc5)cc4F)c3s2)nc1 [GLESATINIB]
NO

And then O=C(Nc1ccc(-c2ccnc(Nc3ccc(N4CCOCC4)cc3)n2)cc1)C1CCCN1 (stereo not given) [XL-019] , what is it?
NO

* * *

# system.tested: Interleukin-1 receptor-associated kinase 1 (Homo sapiens, UniProt P51617); note: in the data inactive means no Kd found up to 30 µM
# Sequence (P51617 whole entry): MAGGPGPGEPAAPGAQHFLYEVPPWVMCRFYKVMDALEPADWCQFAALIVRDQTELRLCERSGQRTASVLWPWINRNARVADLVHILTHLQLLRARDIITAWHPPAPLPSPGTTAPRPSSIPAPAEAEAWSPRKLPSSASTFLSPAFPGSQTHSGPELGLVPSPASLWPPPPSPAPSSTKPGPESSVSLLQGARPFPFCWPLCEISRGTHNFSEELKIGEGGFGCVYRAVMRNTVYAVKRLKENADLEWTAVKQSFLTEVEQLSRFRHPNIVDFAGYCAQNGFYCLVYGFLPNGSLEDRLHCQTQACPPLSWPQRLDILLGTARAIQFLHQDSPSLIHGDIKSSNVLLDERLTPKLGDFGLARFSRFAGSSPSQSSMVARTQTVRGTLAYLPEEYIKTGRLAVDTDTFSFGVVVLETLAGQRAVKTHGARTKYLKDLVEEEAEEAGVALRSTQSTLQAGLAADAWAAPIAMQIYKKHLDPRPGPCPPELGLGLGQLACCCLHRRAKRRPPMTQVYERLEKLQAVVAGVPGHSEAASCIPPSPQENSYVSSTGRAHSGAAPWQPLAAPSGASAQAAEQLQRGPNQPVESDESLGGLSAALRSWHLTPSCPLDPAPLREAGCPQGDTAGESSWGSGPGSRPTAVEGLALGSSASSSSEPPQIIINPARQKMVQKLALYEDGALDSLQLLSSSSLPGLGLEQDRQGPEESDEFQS
Active and inactive are the calls of the source.
// classify into active, inactive

Name the outcome recorded for COc1cc2nccc(Oc3ccc(NC(=O)Nc4cc(C)on4)c(Cl)c3)c2cc1OC in the assay.
inactive

Moving on to CN1CCC(COc2cnc(-c3cccc(Cn4nc(-c5cccc(C#N)c5)ccc4=O)c3)nc2)CC1
inactive

Do the same for CN1N=C(N)c2cn([C@@H]3O[C@H](COP(=O)(O)O)[C@@H](O)[C@H]3O)c3ncnc1c23 [TRICIRIBINE PHOSPHATE] please
inactive

Try this molecule too: CNC(=O)CN1CCC(Oc2cc3c(Nc4cccc(Cl)c4F)ncnc3cc2OC)CC1
inactive

What about this molecule? Cc1ccc(S(=O)(=O)Nc2nc3ccccc3nc2Nc2ccc3nsnc3c2)cc1
inactive

Similarly, C[C@@H](Nc1cc(F)cc(F)c1)c1cc(C(=O)N(C)C)cc2c(=O)cc(N3CCOCC3)oc12 ?
inactive

Same question, CNC(=O)c1cc(Oc2ccc(NC(=O)Nc3ccc(Cl)c(C(F)(F)F)c3)c(F)c2)ccn1 this time
inactive

Then COc1cc(CCc2cc(NC(=O)c3ccc(N4C[C@@H](C)N[C@@H](C)C4)cc3)n[nH]2)cc(OC)c1 ?
inactive

Field entry: C1=C/COCc2cc(ccc2OCCN2CCCC2)Nc2nccc(n2)-c2cccc(c2)COC/1
active

Now the molecule Cc1c(F)cc(C(=O)NC2CC2)cc1-c1ccc(C(=O)NCC(C)(C)C)cn1
inactive

Please do the same for CNC(=O)c1ccc(-c2cnc3ncc(Cc4ccc5ncccc5c4)n3n2)cc1F as well.
inactive

Param item: COC(=O)[C@@]1(O)C[C@H]2O[C@]1(C)n1c3ccccc3c3c4c(c5c6ccccc6n2c5c31)C(=O)NC4 [K-252A]
inactive

Follow-up entry: CC[C@H](Nc1ncnc2[nH]cnc12)c1nc2cccc(F)c2c(=O)n1-c1ccccc1
inactive

And the next one, O=C(O)[C@]1(Cc2cccc(Nc3nccs3)n2)CC[C@@H](Oc2cccc(Cl)c2F)CC1 ?
active

* * *

Target protein (sequence): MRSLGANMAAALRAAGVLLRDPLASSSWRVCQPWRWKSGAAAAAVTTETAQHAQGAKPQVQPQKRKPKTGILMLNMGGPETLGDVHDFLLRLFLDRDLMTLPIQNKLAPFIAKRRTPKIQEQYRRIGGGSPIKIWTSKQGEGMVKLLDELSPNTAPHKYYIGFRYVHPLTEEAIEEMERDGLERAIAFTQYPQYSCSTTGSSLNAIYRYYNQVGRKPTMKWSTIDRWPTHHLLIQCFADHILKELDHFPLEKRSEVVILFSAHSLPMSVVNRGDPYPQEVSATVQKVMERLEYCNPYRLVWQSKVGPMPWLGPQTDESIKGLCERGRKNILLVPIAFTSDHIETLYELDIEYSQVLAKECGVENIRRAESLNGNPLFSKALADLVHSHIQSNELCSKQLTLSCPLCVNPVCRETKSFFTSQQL
Calls of active or inactive are those of the source.
Lab note: assign the record to one of active, inactive

Could you check what this test reported for Cn1cc(-c2ccc(F)c(C(F)(F)F)c2)nc1C1CCN(c2ncnc3[nH]ncc23)CC1 ?
inactive

Let us now turn to COc1cc(OC)c(/C=C/S(=O)(=O)Cc2ccc(OC)c(NCC(=O)O)c2)c(OC)c1
active

Follow-up item: CNC(=O)c1ccc(C)c(-n2c(C)cc(OCc3ccc(F)cc3F)c(Br)c2=O)c1
inactive

Thanks! And CC[C@@H]1C(=O)N(C)c2cnc(Nc3ccc(C(=O)N[C@H]4CC[C@H](N5CCN(CC6CC6)CC5)CC4)cc3OC)nc2N1C(C)C ?
inactive

CNS(=O)(=O)Nc1nccc(Cc2c(C)c3ccc(Oc4ncccn4)cc3oc2=O)c1F ?
inactive

Now the compound O=C(Nc1cccc(Cl)c1)Nc1ncc(CCNc2ncnc3ccsc23)s1
inactive

Further, for Cc1cc(-c2cc(O)ccc2Cl)cc2nnc(Nc3ccc(OCCN4CCCC4)cc3)nc12 ?
inactive

Another compound to look at: CCS(=O)(=O)N1CC(CC#N)(n2cc(-c3ncnc4[nH]ccc34)cn2)C1
inactive
